Test system: SK-MEL-28
ASSAY_INFO: NCI tumour cell line growth inhibition, 48 h
Activity calls are given as the source filed them. Rule as the data show it: active = GI50 up to about 1.1 µM and inactive = higher.
Return exactly one item of active, inactive

How did this test come out for Clc1ccc(COC(Cn2ccnc2)c2ccc(Cl)cc2Cl)cc1 (stereo unspecified) [ECONAZOLE NITRATE] ?
inactive

Please state the recorded outcome for this compound: COc1cc2c(cc1OC)C(=O)N(c1ccc(O)cc1)C2=O
inactive

Which outcome did this test record for the compound CC(C)(C)NNC(=O)CCn1[nH]c(=O)c(Cl)c(Cl)c1=O ?
inactive

Given O=C1C=CC(=O)c2c1ccc1c3ccccc3n(-c3cccc([N+](=O)[O-])c3)c21 , state the outcome it received in this test.
inactive

What did this assay record as the result for O=S1(=O)OCCOS(=O)(=O)C1F ?
inactive

Assay result, entry O=C1CCC(c2nc3cc(Cl)ccc3o2)C(=O)N1 (stereo unspecified) — outcome?
inactive

How was O=S(=O)(O)c1cccc2ccc(O)c(/N=N\c3ccc(S(=O)(=O)c4ccc(/N=N/c5c(O)ccc6cccc(S(=O)(=O)O)c56)cc4)cc3)c12 classified in this test?
inactive

Could you check what this test reported for Nc1ccc(-c2nc3ccc(F)cc3s2)cc1 ?
inactive

What is the recorded call for this compound in the test? CSc1ccc(/C=C2\CNC/C(=C\c3ccc(SC)cc3)C2=O)cc1
inactive

State the result this test recorded for COC(=O)C(CCc1ccccc1I)C1=CCC2(CC1)OCCO2 (stereo unspecified) .
inactive

Outcome? O=c1oc2c([N+](=O)[O-])cc([N+](=O)[O-])cc2c2ccccc12
inactive

Name the outcome recorded for c1ccc2c(c1)cc(C1NCCc3nc[nH]c31)c1ccccc12 (stereo unspecified) in the assay.
inactive

How did this test come out for C#CCOCn1cnc2ncnc(N)c21 ?
inactive

Please indicate how the test categorized CCOC(=O)Cc1ccc(Nc2nc3ccccc3nc2C(=O)OCC)cc1 .
inactive

Please indicate how the test categorized CC(=O)Oc1c(OC(C)=O)c(-c2ccc(O)c(O)c2)c(O)c(O)c1-c1ccc(O)cc1 .
inactive

Recorded call for CCOC(=O)C(=O)Nc1nc2c(OCC)cccc2s1 ?
inactive

Hi, sorry to bother you, what did the test record for c1ccc([P+](c2ccccc2)(c2ccccc2)c2ccc([P+](c3ccccc3)(c3ccccc3)c3ccccc3)cc2)cc1 ?
inactive

Check the results log: what was the call for C(#CC1(Nc2ccccc2)CCN(Cc2ccccc2)CC1)C1(Nc2ccccc2)CCN(Cc2ccccc2)CC1 ?
inactive

For C[n+]1[n-]o/c(=N\N=O)c1-c1cc(-c2/c(=N/N=O)o[n-][n+]2C)cc(-c2/c(=N\N=O)o[n-][n+]2C)c1 , which call appears in the assay record?
inactive

Look up the recorded call for O=C(CCc1n[nH]c(=S)o1)Nc1ccc(Cl)cc1Cl in this test.
inactive

Just curious, what result did C1CN2CCNCCN(CCN1)CC2 get here?
inactive

Field: outcome | Entry: CC(C)(C)c1cc(C=C(C#N)C#N)cc(C(C)(C)C)c1O [TYRPHOSTIN A9]
inactive

For CCCCCCCCCCCCCCC(O)C1CCC(C(O)CCC(O)CCCCCC(O)CC2=CC(C)OC2=O)O1 (stereo unspecified) , which call appears in the assay record?
inactive

Would you mind telling me which call this test gave c1ccc(-c2cccc(-c3ccccn3)n2)nc1 [TERPYRIDINE] ?
active

Entry COC1CC(OC2C(C)OC(OC3C(C)OC(OC4C(C)OC(O[C@H]5CC[C@@]6(C)C(=CC[C@]7(O)[C@@H]6C[C@@H](O)[C@@]6(C)[C@]7(O)CC[C@@]6(O)C(C)=O)C5)CC4OC)CC3OC)CC2OC)OC(C)C1O (stereo partly specified) : call = ?
inactive

Check the results log: what was the call for CC1OC(OC2C(O)C(O)C(O)C(O)C2O)C(N)CC1NC(=N)C(=O)O (stereo unspecified) ?
inactive

Status in this test for CCOC(=O)C(C)OC(=O)c1ccc(C)cc1 (stereo unspecified) ?
inactive

Record request — test call for COC(=O)C1SC(N(C)c2ccccc2)=NC12c1ccccc1Nc1ccccc12 (stereo unspecified)
inactive

Would you mind telling me which call this test gave CC/C=C\C=C/C(=O)N/C=C/CCC ?
inactive

Which outcome did this test record for the compound CN(C(=O)/C=C/c1ccccc1)C1C2CN3CCC(O2)C13 (stereo unspecified) ?
inactive

Returns: the outcome recorded for CC(C)(CN1CCCCC1)C(=O)/C=C/c1ccccc1 in this assay.
inactive

----------
Tested on: SNB-75
ASSAY_INFO: NCI tumour cell line growth inhibition, 48 h
The source made the active and inactive calls. Cut-off read from the data, not from the text of the source: active = GI50 up to about 1.1 µM and inactive = higher.
PROPERTY_NAME: GI50

Please look at this compound and report its GI50: CC(C)CC/N=c1/cc2n(-c3ccc(Cl)cc3)c3ccccc3nc-2cc1Nc1ccc(Cl)cc1
9.75 µM (inactive)

Give reported GI50 value for O=C1CN2Cc3cc(N4CCOCC4)ccc3N=C2N1
31.5 µM (inactive)

# return recorded GI50 for entry O=C(c1ccc2c3c(ccc(C(=O)C(F)(F)F)c13)CC2)C(F)(F)F
29.4 µM (inactive)

Tell us which GI50 value is on record for [N-]=[N+]=NC1(c2ccccc2)C(=O)C(Cl)=C(c2ccccc2)N(c2ccccc2)C1=O (centres undefined)
> 100 µM (inactive)

Provide one value: measured GI50 of CC(=O)N(C)OC(=O)CC(=O)c1ccccc1
76.9 µM (inactive)

Supply recorded GI50 for OCC1=CC(NC2CC(CO)C(O)C(O)C2O)C(O)C(O)C1O (centres undefined) here.
> 100 µM (inactive)

Give GI50 for CC(C)(CN1CCCCC1)C(=O)/C=C/c1ccccc1
11.6 µM (inactive)

Return value of GI50 for input C=C(C(=O)O)C1CCC(CC/C=C(\C)CC/C=C(\C)CCC=C(C)C)CO1 (centres undefined) , no commentary.
> 100 µM (inactive)

// fetch GI50 given entry CC(C)OC(=O)[C@@H](O)[C@H](CO)C1=CC([Si](C)(C)c2ccccc2)=CON1
1.26 µM (inactive)

----------
What GI50 was measured for each of the following?
System: A498
ASSAY_INFO: NCI tumour cell line growth inhibition, 48 h
Active and inactive are the calls of the source. Cut-off read from the data, not from the text of the source: active = GI50 up to about 1.1 µM and inactive = higher.

// fetch GI50 for Cc1ccccc1NC(=O)C(=O)C(c1cnc2ccc([N+](=O)[O-])cc2n1)[N+](=O)[O-] (stereo not given) ; system: A498
> 100 µM (inactive)

With A498 as the test system, provide measured GI50 for this molecule: COc1ccc(-n2c(N)c(C#N)c(C#N)c2-c2cccc([N+](=O)[O-])c2)cc1
> 100 µM (inactive)

Param request: GI50 | system A498 | item Cc1ccc(S(=O)(=O)n2cc(/C=C/C#N)c(/C=C/C#N)c2)cc1
50.5 µM (inactive)

State measured GI50 of the molecule CCCCCc1cc(CCCC)sc1-c1ccco1 with A498.
> 100 µM (inactive)

Look up A498 data: GI50 of CC12CC[C@@H](C(C)(C)O)C1[C@@H](O)CC1(C)C2CCC2[C@@]3(C)CC[C@H](O)C(C)(C)C3C(O)C[C@]21C (stereo not given in full) , then report it.
13.5 µM (inactive)

Find GI50 for N[C@H](C(=O)O)[C@H](Cl)CC(=O)O on A498 and write it down.
> 100 µM (inactive)

State GI50 on A498. Entry: NC1CCC(N(CC(=O)O)CC(=O)O)C(N(CC(=O)O)CC(=O)O)C1 (stereo not given)
> 100 µM (inactive)

Report measured GI50 on A498; entry: CCOC(=O)CC1NC(=O)CS1 (stereo not given)
> 100 µM (inactive)

// output GI50; input N#CC1Sc2ccccc2-n2cccc21 (stereo not given) ; system A498
67.6 µM (inactive)

Would you please give the reported GI50 of CCC1=C(CC2NCCc3ccccc32)CC2c3cc(OC)c(OC)cc3CCN2C1 (stereo not given) with A498?
0.83 µM (active)

----------
Test system: CAKI-1
ASSAY_INFO: NCI tumour cell line growth inhibition, 48 h
Calls of active or inactive are those of the source. No stated cut-off is given here; in the data, active = GI50 up to about 1.1 µM and inactive = higher.
Consider the following molecules; for each one, report its GI50.

Given the molecule C1CN2CCNCCN(CCN1)CC2 , write its reported GI50.
> 100 µM (inactive)

Query GI50 for COC(=O)C(CCc1ccccc1I)C1=CCC2(CC1)OCCO2 (stereo unspecified)
95.3 µM (inactive)

Output GI50 of O=C(Cc1nc2ncccc2[nH]c1=O)c1c[nH]c2ccccc12
17.4 µM (inactive)

Given O=C(O)C(CS)NCc1c2ccccc2[n+]([O-])c2ccccc12 (stereo unspecified) , respond with its GI50.
83.6 µM (inactive)

Consider the molecule Cc1ccc2cc3c(ccc4ccccc43)c3c2c1CC3 . State its measured GI50.
> 100 µM (inactive)

# return recorded GI50 for input COC(=O)/C=C\C1C(C(=O)OC)C2(C(=O)OC)CCC1(C(=O)OC)N2 (stereo unspecified)
2.88 µM (inactive)

----------
So I've got a bunch of compounds here, and I need their GI50 values.
Test system: M19-MEL
ASSAY_INFO: NCI tumour cell line growth inhibition, 48 h
Activity calls are given as the source filed them. No stated cut-off is given here; in the data, active = GI50 up to about 1.1 µM and inactive = higher.

# return recorded GI50 for input CS(=O)(=O)CSCSSCS(C)(=O)=O
> 57.9 µM (inactive)

# return recorded GI50 for input CC1=CC(C)(C)N=C2SC(c3ccc(Cl)cc3)=NN12
32 µM (inactive)

Consider the compound N#Cc1cnsc1 . State its measured GI50.
> 100 µM (inactive)

Provide one value: measured GI50 of CC(=O)N(C)OC(=O)CC(=O)c1ccccc1
> 100 µM (inactive)

Could you please provide reported GI50 for CC1CCC(C(C)C)C(O[C@@H]2OC(=O)C[C@@H]2Sc2ccccc2)C1 (some centres not stated) ? Thanks!
24 µM (inactive)

Query GI50 for Cc1nc(=O)[nH]c2[nH][nH]c(=O)c12
> 100 µM (inactive)

Answer with the recorded GI50 for the compound listed here: N#Cc1ccccc1Sc1ccccc1N
> 100 µM (inactive)

Give recorded GI50. O=C1NC2(CCCC2)C(=O)C12CCCC2
> 100 µM (inactive)

In one line, give reported GI50 of the entry CC(C)(C)N/N=C(\Cc1occc(=O)c1O)C(=O)Nc1ccc([N+](=O)[O-])cc1[N+](=O)[O-] .
> 100 µM (inactive)

Supply measured GI50 of O=C(O/N=C1\CCCC\C1=C/c1ccccc1)c1ccc([N+](=O)[O-])cc1 in your reply.
> 100 µM (inactive)

Please list GI50 recorded for the compound COc1c2ccoc2c(S(=O)(=O)Nc2ccc(Cl)cc2)c2oc(C)cc(=O)c12
> 100 µM (inactive)

Give GI50 for the following compound: Cn1c(N)c(-c2c3ccccc3nc3ccccc23)c(=O)n(C)c1=O
> 100 µM (inactive)

The reported numbers originate from ChEMBL document CHEMBL1201862.
